Please go through the items and note down their percent inhibition of Factor XI mRNA, relative to untreated control cells.
# System: human Factor XI mRNA
# ASSAY_INFO: Dose-dependent inhibition in HepG2 cells, lipofectin (Example 4)
# Format: cell-based
# EXPERIMENTAL_SETUP: 37.5 nM, 16 hours
In the oligonucleotide strings, read from the 5' end, every base follows the letter of its sugar. An asterisk marks phosphorothioate; unmarked linkages are phosphodiester. Other units and linkages are bracketed, terminal groups are in braces. A string of capitals states the bases alone. e = 2'-O-(2-methoxyethyl) (MOE); [5mC] = 5-methylcytosine; d = 2'-deoxy (DNA)
Give bare numbers, in %.

Worked examples, 2 substances total:
substance="416825 (antisense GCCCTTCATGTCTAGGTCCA; 5-10-5 gapmer, wing sugar chemistry not given here, further chemistry not given here) [compound 416825]" target_of_assay="human Factor XI mRNA" numeric_readout=73
substance="412203 (antisense eA*eA*eT*eG*eT*d[5mC]*dT*dT*dT*dG*dT*dT*dG*d[5mC]*dA*eA*eG*e[5mC]*eG*e[5mC]) [compound 412203]" target_of_assay="human Factor XI mRNA" numeric_readout=62

API: the following record is the query input.
Entry 417002 (antisense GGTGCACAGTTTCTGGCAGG; 2-13-5 gapmer, wing sugar chemistry not given here, further chemistry not given here) [compound 417002] : reported percent inhibition of Factor XI mRNA, relative to untreated control cells = ?
67
